Please respond with reported IFNg Peptide + (donors positive to the peptide) for every item in the list.
# System: peripheral blood mononuclear cells (PBMC), T cells
# ASSAY_DETAILS: ELISpot assay, gamma-interferon release (SFC) after stimulation with a-synuclein epitope pools
# Assay type: cell-based, human
# MEASUREMENT_CONTEXT: Patients Summary; PD patients; of donors tested (peptide)
# Method: Blood from age matched controls and PD patients were obtained and mononuclear cells were isolated by gradient centrifugation. Release of the cytokines gamma-interferon, which measures activation of CD4+ and/or CD8+ T cells, and the interleukin, IL-5, which measures activation of CD4+ T cells was measured by ELISpot assay. […] After 22 hours of stimulation at 37 C, the cells were removed and release of cytokines was measured by colorimetric detection of spot-forming cells (SFC). […]
API note: the answer field is a bare number with no unit suffix.

input: Look up IFNg Peptide + (donors positive to the peptide) for this substance: 3521.0065 (FVKKDQLGK; listed as Homo sapiens)
output: 0

input: Look up IFNg Peptide + (donors positive to the peptide) for this substance: 3521.0018 (MPVDPDNEA; listed as Homo sapiens)
output: 0

input: Look up IFNg Peptide + (donors positive to the peptide) for this substance: 3521.0046 (FMKGLSKAKE; listed as Homo sapiens)
output: 0

input: Look up IFNg Peptide + (donors positive to the peptide) for this substance: 3521.0033 (VLYVGSKTKK; listed as Homo sapiens)
output: 5

input: Look up IFNg Peptide + (donors positive to the peptide) for this substance: 3521.0066 (KAKEGVVAA; listed as Homo sapiens)
output: 0
